- Tgt: Cytochrome P450 2D6 (Homo sapiens)
- Sequence (P10635 whole entry): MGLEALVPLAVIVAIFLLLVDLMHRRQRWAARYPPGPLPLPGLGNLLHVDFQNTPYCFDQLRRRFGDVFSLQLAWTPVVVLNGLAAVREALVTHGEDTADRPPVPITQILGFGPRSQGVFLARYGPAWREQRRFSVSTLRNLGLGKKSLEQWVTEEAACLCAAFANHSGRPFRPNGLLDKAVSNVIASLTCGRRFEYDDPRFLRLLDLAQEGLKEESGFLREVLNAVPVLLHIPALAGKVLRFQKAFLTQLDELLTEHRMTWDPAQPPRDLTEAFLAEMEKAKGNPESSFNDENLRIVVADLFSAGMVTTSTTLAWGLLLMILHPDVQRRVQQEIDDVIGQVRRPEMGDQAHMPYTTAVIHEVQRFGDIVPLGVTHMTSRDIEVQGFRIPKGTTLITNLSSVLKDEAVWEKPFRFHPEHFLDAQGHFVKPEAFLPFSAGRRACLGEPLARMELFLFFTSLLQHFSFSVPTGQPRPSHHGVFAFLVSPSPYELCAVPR
Readout kind: AC50

What does the record list as AC50 for `COc1ccc(-c2nc3cnc(N4CCNCC4)nc3n(Cc3cccc(OC)c3)c2=O)cc1` ? 39.8 µM (inconclusive)

Another compound to look at: `O=[N+]([O-])/C=C/c1cn(Cc2ccccc2)c2ccccc12` 15.8 µM (inconclusive)

Another compound to look at: `N=c1n(-c2ccccc2)c(O)cc(=O)n1-c1ccccc1` 22.4 µM (inconclusive)

----------
Exercise: state measured AC50 for each of the molecules provided.
- Tgt: Replicative DNA helicase DnaB (Mycobacterium tuberculosis)
- Sequence (P9WMR3 1-399, added parts left off): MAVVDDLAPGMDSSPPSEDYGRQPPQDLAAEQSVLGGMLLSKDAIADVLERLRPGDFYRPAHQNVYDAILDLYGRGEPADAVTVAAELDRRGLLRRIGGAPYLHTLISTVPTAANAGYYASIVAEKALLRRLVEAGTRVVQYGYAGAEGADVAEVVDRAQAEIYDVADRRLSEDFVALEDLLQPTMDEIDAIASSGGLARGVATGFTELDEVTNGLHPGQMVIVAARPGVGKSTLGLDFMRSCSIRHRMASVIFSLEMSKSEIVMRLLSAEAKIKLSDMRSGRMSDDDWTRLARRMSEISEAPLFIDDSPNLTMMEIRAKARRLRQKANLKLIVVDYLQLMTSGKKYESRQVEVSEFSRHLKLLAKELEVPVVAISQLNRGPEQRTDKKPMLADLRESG
- Method notes: DnaB intein splicing inhibitors, dose response, biochemical, cell-free fluorescence (AID 449749)
- Type: functional
Activity calls are given as the source filed them.

What does the record list as AC50 for `CN(c1ccccc1)c1ccc([N+](=O)[O-])c2nonc12` ? 74.7 µM (active)

Another molecule to look at: COc1ccccc1/N=C1\C(Cl)=C(O)OC1OC(=O)c1ccco1 (stereo not given) 12.5 µM (active)

Another molecule to look at: `CCOc1cc(C(c2c(C)n[nH]c2O)c2c(C)n[nH]c2O)ccc1OCc1ccc([N+](=O)[O-])cc1` 0.281 µM (active)

Another molecule to look at: COC(CN(C(=O)CCl)C(C(=O)NC1CCCCC1)c1ccc(Cl)cc1)OC (stereo not given) 15.8 µM (active)

Another molecule to look at: N#CC1=C(N)Oc2[nH]nc(-c3ccccc3)c2C1c1ccsc1 (stereo not given) 0.142 µM (active)

----------
- Tgt: Corticotropin-releasing factor receptor 2/Corticotropin-releasing factor-binding protein (Homo sapiens, UniProt P24387+Q13324)
- Sequence (Q13324 whole entry): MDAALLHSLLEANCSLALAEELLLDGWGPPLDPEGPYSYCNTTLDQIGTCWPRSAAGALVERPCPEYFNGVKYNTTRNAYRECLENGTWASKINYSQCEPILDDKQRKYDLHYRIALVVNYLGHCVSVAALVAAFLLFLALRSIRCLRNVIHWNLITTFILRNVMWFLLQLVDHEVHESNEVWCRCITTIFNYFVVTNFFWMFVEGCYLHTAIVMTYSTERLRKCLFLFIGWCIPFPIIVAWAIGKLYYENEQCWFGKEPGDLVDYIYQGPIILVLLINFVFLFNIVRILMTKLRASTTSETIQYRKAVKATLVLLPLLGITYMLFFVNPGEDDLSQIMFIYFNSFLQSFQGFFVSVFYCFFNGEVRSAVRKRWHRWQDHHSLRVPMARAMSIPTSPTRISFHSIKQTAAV
- Sequence (P24387 whole entry): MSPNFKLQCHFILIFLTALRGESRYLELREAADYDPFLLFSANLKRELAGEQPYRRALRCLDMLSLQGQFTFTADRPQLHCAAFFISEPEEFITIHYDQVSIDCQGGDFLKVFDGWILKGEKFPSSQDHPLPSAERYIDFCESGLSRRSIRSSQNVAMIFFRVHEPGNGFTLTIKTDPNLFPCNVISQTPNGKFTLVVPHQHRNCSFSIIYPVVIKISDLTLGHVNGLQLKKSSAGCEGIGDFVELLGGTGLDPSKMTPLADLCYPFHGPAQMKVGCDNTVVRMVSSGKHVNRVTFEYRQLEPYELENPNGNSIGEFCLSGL
- Method notes: activators of CRF receptor 2 with binding protein – uHTS hits, confirmation (AID 602473)
- Assay type: functional
- Assay setup: read-out: EC50_Mean
Activity calls are given as the source filed them.
Output constraint: value belongs to y (active), n (inactive)

# lookup: test call for CCO/C(O)=C1/C(C)=NC(SCC(=O)OC)=C(C#N)C1c1ccc(C(=O)OC)cc1 (centres undefined) n

Another molecule to look at: `N#C/C(=C\c1ccccc1[N+](=O)[O-])C(=O)NC1CCCCC1` n

Another molecule to look at: `Cc1ccc(S(=O)(=O)Nc2cc(O)nc(SCC(=O)Nc3cccc(C(F)(F)F)c3)n2)cc1` n

Another molecule to look at: CCNc1nc(NC(C)CC)nc(Oc2ccc(OCC)nn2)n1 (centres undefined) n

Another molecule to look at: `Cc1ccc(-n2nnnc2SCc2nnc(-c3ccccc3Br)o2)c(C)c1` n

Another molecule to look at: `COc1ccc(C(=O)ON=C(N)Cc2ccc(Cl)c(Cl)c2)cc1OC` n

Another molecule to look at: `CCOC(=O)N1CCN(C(=O)CSc2nnc(CNC(=O)c3ccccc3F)o2)CC1` n

Another molecule to look at: `COc1ccccc1NC(=O)/C(C#N)=C/c1cc([N+](=O)[O-])ccc1N1CCCC1` y

Another molecule to look at: Cc1cccc([N+]2=C3CCCCN3C(O)(c3cccs3)C2)c1 (centres undefined) n

----------
- Tgt: High affinity choline transporter 1 (Homo sapiens)
- Sequence (Q9GZV3 whole entry): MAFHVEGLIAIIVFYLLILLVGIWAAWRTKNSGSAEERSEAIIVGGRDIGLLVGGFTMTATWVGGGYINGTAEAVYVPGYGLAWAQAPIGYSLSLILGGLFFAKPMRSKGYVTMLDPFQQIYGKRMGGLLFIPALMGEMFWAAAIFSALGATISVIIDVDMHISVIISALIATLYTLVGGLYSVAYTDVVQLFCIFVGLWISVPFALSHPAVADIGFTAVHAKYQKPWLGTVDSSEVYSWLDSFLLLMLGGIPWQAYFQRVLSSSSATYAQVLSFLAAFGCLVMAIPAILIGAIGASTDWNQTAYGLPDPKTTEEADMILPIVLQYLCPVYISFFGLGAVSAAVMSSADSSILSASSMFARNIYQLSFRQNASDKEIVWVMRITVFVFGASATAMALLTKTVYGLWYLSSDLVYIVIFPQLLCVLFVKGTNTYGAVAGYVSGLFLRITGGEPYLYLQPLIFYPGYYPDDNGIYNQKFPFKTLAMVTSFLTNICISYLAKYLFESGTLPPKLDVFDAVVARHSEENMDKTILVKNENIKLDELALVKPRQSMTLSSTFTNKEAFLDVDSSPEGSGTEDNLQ
- Method notes: human choline transporter blockers, potency – cell-based, 5-point CRC, membrane potential dye, dose response (AID 504840)
- Type: functional
The source made the active and inactive calls.
Readout kind: IC50

Observed IC50 on High affinity choline transporter 1 (Homo sapiens) for `COc1ccc(C2(O)CCN(C(=O)NC3CCCCC3)CC2)cc1` , please. 14.5 µM (active)

Another compound to look at: `CCCCn1nc2cc(C(=O)N[C@H](C)C3CCCCC3)ccc2c1OCC` 7.76 µM (active)

Another compound to look at: `CC1=C/C(=N\OS(=O)(=O)c2ccccc2)C(C)=CC1=O` 12.3 µM (active)

Another compound to look at: CCc1ccc2oc(C(=O)NCC(c3ccc(OC)cc3)N3CCCCC3)c(C)c2c1 (centres undefined) 2.29 µM (active)
